molecular target: Endothelial PAS domain-containing protein 1 (Homo sapiens); assay: HIF-1a and HIF-2a reporter inhibitors, SAR follow-up, cell-based, luminescence, MIAPaCa-2, 786-0, panel (AID 652011); conditions: MIAPaCa-2/PANC HIF reporter, luciferase luminescence, desferoxamine, overnight; HIF2a PANC cells; mean of runs
Calls of active or inactive are those of the source.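 Rule for the calls: active = IC50 of 10 µM or lower on HIF-2a in both cell lines, but not on HIF-1a; inactive = the rest, including compounds also potent on HIF-1a.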
Please state which outcome applies, choosing from active, inactive

[[record]]
compound = "CC(C)(C)c1ccc(-c2noc(CCC(=O)Nc3ccccc3)n2)cc1"
cat = "active"


Input: Hi team, can someone confirm the assay call for `CC(C)(C)c1ccc(-c2noc(CCC(N)=O)n2)cc1` ?
Output: active

Input: Hi team, can someone confirm the assay call for `CCNC(=O)CCc1nc(-c2cccc(C)c2)no1` ?
Output: inactive

Input: Hi team, can someone confirm the assay call for `CCNC(=O)CCc1nc(-c2ccc(OCC)cc2)no1` ?
Output: inactive

Input: Hi team, can someone confirm the assay call for `CCNC(=O)CCc1nc(-c2ccc(C(C)C)cc2)no1` ?
Output: inactive

Input: Hi team, can someone confirm the assay call for CCc1ccc(-c2noc(CCC(=O)NC(C)CC)n2)cc1 (stereo not given) ?
Output: inactive

Input: Hi team, can someone confirm the assay call for `CC(C)(C)NC(=O)CCc1nc(-c2ccc(C(C)(C)C)cc2)no1` ?
Output: active

Input: Hi team, can someone confirm the assay call for `CC(C)(C)c1ccc(-c2noc(CCC(=O)NC3CCCC3)n2)cc1` ?
Output: active

Input: Hi team, can someone confirm the assay call for `O=C(O)CCc1nc(-c2ccccc2)no1` ?
Output: inactive

Input: Hi team, can someone confirm the assay call for `CNC(=O)CCc1nc(-c2ccc(C)cc2)no1` ?
Output: inactive

---

target: Endothelial PAS domain-containing protein 1 (Homo sapiens) (UniProt Q99814); assay: HIF-1a and HIF-2a reporter inhibitors, SAR follow-up, cell-based, luminescence, MIAPaCa-2, 786-0, panel (AID 652011); settings: MIAPaCa-2/PANC HIF reporter, luciferase luminescence, desferoxamine, overnight; HIF2a PANC cells; mean of runs
Sequence (Q99814 whole entry, looked up, the tested form may be a part): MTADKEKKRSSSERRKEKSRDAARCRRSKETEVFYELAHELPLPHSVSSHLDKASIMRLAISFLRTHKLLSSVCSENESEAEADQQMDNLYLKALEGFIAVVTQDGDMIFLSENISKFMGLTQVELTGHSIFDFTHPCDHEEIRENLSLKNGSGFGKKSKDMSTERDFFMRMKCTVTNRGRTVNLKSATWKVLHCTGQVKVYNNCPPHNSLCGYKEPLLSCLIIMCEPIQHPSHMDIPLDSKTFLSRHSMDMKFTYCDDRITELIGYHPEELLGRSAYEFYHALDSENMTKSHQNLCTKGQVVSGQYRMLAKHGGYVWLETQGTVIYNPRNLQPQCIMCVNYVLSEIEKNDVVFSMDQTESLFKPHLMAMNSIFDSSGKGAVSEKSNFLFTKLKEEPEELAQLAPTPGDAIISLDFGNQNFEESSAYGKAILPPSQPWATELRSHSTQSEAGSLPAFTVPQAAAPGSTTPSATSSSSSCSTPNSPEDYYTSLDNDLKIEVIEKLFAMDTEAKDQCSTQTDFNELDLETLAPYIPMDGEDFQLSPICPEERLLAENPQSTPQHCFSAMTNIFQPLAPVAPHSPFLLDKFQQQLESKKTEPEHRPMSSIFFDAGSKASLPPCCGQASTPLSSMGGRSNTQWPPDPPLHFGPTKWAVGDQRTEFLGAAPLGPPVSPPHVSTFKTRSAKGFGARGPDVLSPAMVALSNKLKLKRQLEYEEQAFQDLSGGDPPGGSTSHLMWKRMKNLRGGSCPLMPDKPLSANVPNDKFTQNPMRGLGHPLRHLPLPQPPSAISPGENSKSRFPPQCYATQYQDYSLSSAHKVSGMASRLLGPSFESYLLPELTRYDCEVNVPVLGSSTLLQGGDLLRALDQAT
Calls of active or inactive are those of the source.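 How the source made its calls: active means IC50 of 10 µM or lower on HIF-2a in both cell lines, but not on HIF-1a; inactive means the rest, including compounds also potent on HIF-1a.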
Please state which outcome applies, choosing from class 1 = active, class 0 = inactive

[[record]]
compound = "CC(C)(C)c1ccc(-c2noc(CCC(=O)NC3CCC3)n2)cc1"
assay_target = "Endothelial PAS domain-containing protein 1 (Homo sapiens) (UniProt Q99814)"
cat = "class 1"


Input: Hi team, can someone confirm the assay call for `CCCNC(=O)CCc1nc(-c2ccc(C(C)(C)C)cc2)no1` ?
Output: class 0

Input: Hi team, can someone confirm the assay call for `CC(C)c1ccc(-c2noc(CCC(=O)NC(C)(C)C)n2)cc1` ?
Output: class 0

Input: Hi team, can someone confirm the assay call for `CCOc1ccc(-c2noc(CCC(=O)O)n2)cc1` ?
Output: class 1

Input: Hi team, can someone confirm the assay call for `CCN(CC)C(=O)CCc1nc(-c2ccc(C(C)(C)C)cc2)no1` ?
Output: class 0

---

target: Endothelial PAS domain-containing protein 1 (Homo sapiens) (UniProt Q99814); assay: HIF-1a and HIF-2a reporter inhibitors, SAR follow-up, cell-based, luminescence, MIAPaCa-2, 786-0, panel (AID 652011); conditions: MIAPaCa-2/PANC HIF reporter, luciferase luminescence, desferoxamine, overnight; HIF2a PANC cells; mean of runs
Active and inactive are the calls of the source.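 Rule for the calls: active = IC50 of 10 µM or lower on HIF-2a in both cell lines, but not on HIF-1a; inactive = the rest, including compounds also potent on HIF-1a.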
Please state which outcome applies, choosing from active, inactive

Record excerpt, results attached:
[[record]]
molecule_smiles = "CNC(=O)CCc1nc(-c2ccc(Cl)cc2)no1"
assay_target = "Endothelial PAS domain-containing protein 1 (Homo sapiens) (UniProt Q99814)"
cat = "inactive"

[[record]]
molecule_smiles = "CCOc1ccc(-c2noc(CCC(=O)NC)n2)cc1"
assay_target = "Endothelial PAS domain-containing protein 1 (Homo sapiens) (UniProt Q99814)"
cat = "active"


Input: Hi team, can someone confirm the assay call for `CNC(=O)CCc1nc(-c2ccc(F)cc2)no1` ?
Output: inactive

---

target: Endothelial PAS domain-containing protein 1 (Homo sapiens); assay: HIF-1a and HIF-2a reporter inhibitors, SAR follow-up, cell-based, luminescence, MIAPaCa-2, 786-0, panel (AID 652011); conditions: MIAPaCa-2/PANC HIF reporter, luciferase luminescence, desferoxamine, overnight; HIF2a PANC cells; mean of runs
Activity calls are given as the source filed them.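 Rule for the calls: active = IC50 of 10 µM or lower on HIF-2a in both cell lines, but not on HIF-1a; inactive = the rest, including compounds also potent on HIF-1a.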
assay metric: IC50

Input: # return recorded IC50 for input CCC(C)NC(=O)CCc1nc(-c2ccc(C(C)C)cc2)no1 (configuration not stated)
Output: > 99 µM (inactive)

Input: # return recorded IC50 for input `CCNC(=O)CCc1nc(-c2c(Cl)cccc2Cl)no1`
Output: > 99 µM (inactive)

Input: # return recorded IC50 for input `CCc1ccc(-c2noc(CCC(=O)NC(C)(C)C)n2)cc1`
Output: > 99 µM (inactive)

Input: # return recorded IC50 for input `C=CCNC(=O)CCc1nc(-c2ccc(C(C)(C)C)cc2)no1`
Output: < 0.19 µM

Input: # return recorded IC50 for input `O=C(CCc1nc(-c2ccccc2)no1)NC1CC1`
Output: > 99 µM (inactive)

Input: # return recorded IC50 for input `CC(C)CNC(=O)CCc1nc(-c2ccc(C(C)(C)C)cc2)no1`
Output: < 0.19 µM

Input: # return recorded IC50 for input `CCc1ccc(-c2noc(CCC(=O)NC)n2)cc1`
Output: > 99 µM (inactive)

Input: # return recorded IC50 for input `CCCCc1ccc(-c2noc(CCC(=O)NC(C)(C)C)n2)cc1`
Output: < 0.19 µM

Input: # return recorded IC50 for input `CC(C)(C)c1ccc(-c2noc(CCC(=O)N3CCOCC3)n2)cc1`
Output: > 99 µM (inactive)

Input: # return recorded IC50 for input `CNC(=O)CCc1nc(-c2ccccc2)no1`
Output: > 99 µM (inactive)

Input: # return recorded IC50 for input CC(C)(C)c1ccc(-c2noc(CCC(=O)NCC3CCCO3)n2)cc1 (configuration not stated)
Output: < 0.19 µM

Input: # return recorded IC50 for input `CC(C)(C)c1ccc(-c2noc(CCC(=O)Nc3cccc([N+](=O)[O-])c3)n2)cc1`
Output: < 0.19 µM

---

target: Endothelial PAS domain-containing protein 1 (Homo sapiens); experiment: HIF-1a and HIF-2a reporter inhibitors, SAR follow-up, cell-based, luminescence, MIAPaCa-2, 786-0, panel (AID 652011); conditions: MIAPaCa-2/PANC HIF reporter, luciferase luminescence, desferoxamine, overnight; HIF2a PANC cells; mean of runs
The source made the active and inactive calls.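 Rule for the calls: active = IC50 of 10 µM or lower on HIF-2a in both cell lines, but not on HIF-1a; inactive = the rest, including compounds also potent on HIF-1a.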
Please state which outcome applies, choosing from active, inactive

Record excerpt, results attached:
[[record]]
molecule_smiles = "CCCCc1ccc(-c2noc(CCC(=O)NC)n2)cc1"
cat = "inactive"

[[record]]
molecule_smiles = "CCc1ccc(-c2noc(CCC(=O)NC3CC3)n2)cc1"
cat = "inactive"

[[record]]
molecule_smiles = "COc1ccccc1NC(=O)CCc1nc(-c2ccc(C(C)(C)C)cc2)no1"
cat = "active"

[[record]]
molecule_smiles = "CC(C)(C)c1ccc(-c2noc(CCC(=O)Nc3cccnc3)n2)cc1"
cat = "active"

[[record]]
molecule_smiles = "CCNC(=O)CCc1nc(-c2ccccc2C)no1"
cat = "inactive"


Input: Hi team, can someone confirm the assay call for `CCOc1ccccc1NC(=O)CCc1nc(-c2ccc(C(C)(C)C)cc2)no1` ?
Output: active

Input: Hi team, can someone confirm the assay call for `CNC(=O)CCc1nc(-c2ccc(OC)cc2)no1` ?
Output: inactive

Input: Hi team, can someone confirm the assay call for `CCNC(=O)CCc1nc(-c2cccc(OC)c2)no1` ?
Output: inactive

Input: Hi team, can someone confirm the assay call for `CC(C)c1ccc(-c2noc(CCC(=O)NC3CC3)n2)cc1` ?
Output: inactive

Input: Hi team, can someone confirm the assay call for `CCNC(=O)CCc1nc(-c2ccccc2)no1` ?
Output: inactive

Input: Hi team, can someone confirm the assay call for `CCNC(=O)CCc1nc(-c2ccc(CC)cc2)no1` ?
Output: inactive

Input: Hi team, can someone confirm the assay call for `COc1cccc(NC(=O)CCc2nc(-c3ccc(C(C)(C)C)cc3)no2)c1` ?
Output: active

---

target: Endothelial PAS domain-containing protein 1 (Homo sapiens) (UniProt Q99814); test: HIF-1a and HIF-2a reporter inhibitors, SAR follow-up, cell-based, luminescence, MIAPaCa-2, 786-0, panel (AID 652011); conditions: MIAPaCa-2/PANC HIF reporter, luciferase luminescence, desferoxamine, overnight; HIF2a PANC cells; mean of runs
The source made the active and inactive calls.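 Rule for the calls: active = IC50 of 10 µM or lower on HIF-2a in both cell lines, but not on HIF-1a; inactive = the rest, including compounds also potent on HIF-1a.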
Please state which outcome applies, choosing from active, inactive

Record excerpt, results attached:
[[record]]
molecule = "CCC(C)NC(=O)CCc1nc(-c2ccccc2)no1 (stereo not given)"
cat = "inactive"

[[record]]
molecule = "CCNC(=O)CCc1nc(-c2cccc(F)c2)no1"
cat = "inactive"

[[record]]
molecule = "CC(C)(C)c1ccc(-c2noc(CCC(=O)NC3CC3)n2)cc1"
cat = "active"

[[record]]
molecule = "CNC(=O)CCc1nc(-c2ccc(C(C)(C)C)cc2)no1"
cat = "inactive"


Here is another molecule to look at.
Input: Hi team, can someone confirm the assay call for `CN(C)C(=O)CCc1nc(-c2ccc(C(C)(C)C)cc2)no1` ?
Output: inactive
